Numbers sourced from patent EP4722213A1.

- assay-comment: Rat pharmacokinetic test
- Type: in vivo
- stated-conditions: plasma, male SD rats, IV 1 mg/kg, PO 5 mg/kg via gavage
measurement-kind: bioavailability

Problem: Value lookup for bioavailability; key = Cc1c(C#N)cccc1[C@@H](C)Nc1nnc(C)c2cnc(N3CCOCC3)cc12 [MRTX0902, reference compound]
Solution: 22.6%

====

- tgt: CYP2C19 (Homo sapiens, UniProt P33261)
- Construct: human liver microsomes were used as the CYP450 enzyme source; from tissue; host or cells: human liver microsomes
- Sequence (P33261 whole entry): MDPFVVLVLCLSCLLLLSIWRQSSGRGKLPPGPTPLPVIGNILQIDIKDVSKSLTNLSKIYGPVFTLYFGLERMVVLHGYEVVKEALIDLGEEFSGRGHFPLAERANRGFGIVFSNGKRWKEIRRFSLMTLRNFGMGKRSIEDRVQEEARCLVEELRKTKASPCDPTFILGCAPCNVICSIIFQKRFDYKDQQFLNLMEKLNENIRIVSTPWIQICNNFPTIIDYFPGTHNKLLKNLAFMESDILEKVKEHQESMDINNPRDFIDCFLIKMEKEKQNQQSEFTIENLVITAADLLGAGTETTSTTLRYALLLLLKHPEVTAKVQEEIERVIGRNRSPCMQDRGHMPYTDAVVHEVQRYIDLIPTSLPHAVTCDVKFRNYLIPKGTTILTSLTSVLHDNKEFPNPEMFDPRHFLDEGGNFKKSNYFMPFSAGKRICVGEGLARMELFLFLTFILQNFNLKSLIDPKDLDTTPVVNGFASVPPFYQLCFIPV
- assay-comment: Inhibition of hepatic drug-metabolizing enzymes in human liver microsomes
- Type: in vitro ADME
- stated-conditions: human liver microsomes; read-out: Inhibitory activity on drug-metabolizing enzymes (IC50, µM) CYP2C19
Please provide measured IC50 for the entries that follow.

In the examples that follow, each entry is paired with its recorded IC50.
molecule: CC(C)Nc1nnc(N[C@H](C)c2cccc(C(F)F)c2F)c2cn(C3(C)CC3)c(=O)cc12.O=CO [Example 12, formate]
measured-result: > 10 µM

molecule: CNc1nnc(N[C@H](C)c2cccc(C(F)(F)F)c2C)c2cn(C3(C)CC3)c(=O)cc12
measured-result: > 10 µM

molecule: Cc1c(C#N)cccc1[C@@H](C)Nc1nnc(C)c2cnc(N3CCOCC3)cc12 [MRTX0902, reference compound]
measured-result: 8.62 µM

Problem: Value lookup for IC50; key = CNc1nnc(N[C@H](C)c2cccc(C(F)(F)F)c2C)c2cn(C3CC3)c(=O)cc12
Solution: > 10 µM

====

- tgt: SOS1 (Homo sapiens)
Structures can show the parent of a compound that is named as a salt.
Please provide measured pIC50 for the entries that follow.
Numbers only, as −log10 of the molar value.

molecule: CNc1nnc(N[C@H](C)c2cccc(C(F)(F)F)c2C)c2cn(C3(C)CC3)c(=O)cc12
pIC50: 8.36
--
molecule: CCN1CCN(c2nnc(N[C@H](C)c3cccc(C(F)F)c3F)c3cn(C4(C)CC4)c(=O)cc23)CC1
pIC50: 8.34
--
molecule: CCN1CCN(c2nnc(N[C@H](C)c3cccc(C#N)c3C)c3cn(C)c(=O)cc23)CC1 [Example 145, formate]
pIC50: 8.11
--
molecule: C[C@@H](Nc1nnc(N2CCC2)c2cc(=O)n(C3CC3)cc12)c1cccc(C(F)F)c1F
pIC50: 8.26
--
molecule: C[C@@H](Nc1nnc(N2CCN(C)CC2)c2cc(=O)n(N3CCOCC3)cc12)c1cccc(C(F)F)c1F
pIC50: 8.48
--
molecule: Cc1c([C@@H](C)Nc2nnc(N3CCS(=O)(=O)CC3)c3cc(=O)n(C4CC4)cc23)cccc1C(F)(F)F
pIC50: 7.56

// moving on: another record for pIC50
Problem: Value lookup for pIC50; key = C[C@@H](Nc1nnc(N2CCN(C)CC2)c2cc(=O)n(C3(C)CC3)cc12)c1cccc(C(F)(F)CO)c1
Solution: 8.37

====

A short record of pIC50 observed with UniProt Q07889 follows.
One number for each entry, as −log10 of the molar value.

Please give pIC50, item by item, for the list that follows.
1. CCN1CCN(c2nnc(N[C@H](C)c3cccc(C(F)F)c3F)c3cn(C4CC(F)(F)C4)c(=O)cc23)CC1
2. C[C@@H](Nc1nnc(N2CCC3(CC2)CC3(F)F)c2cc(=O)n(C3(C)CC3)cc12)c1cccc(C(F)F)c1F
3. CCN1CCN(c2nnc(N[C@H](C)c3cccc(C(F)F)c3F)c3cn(CC)c(=O)cc23)CC1

Solution:
1: 8.37; 2: 7.51; 3: 8.09

Problem: Value lookup for pIC50; key = CCn1cc2c(N[C@H](C)c3cccc(C(F)F)c3F)nnc(N3CCN(C)CC3)c2cc1=O
Solution: 8.18

====

- tgt: CYP3A4 (Homo sapiens)
- Construct: human liver microsomes were used as the CYP450 enzyme source; from tissue; host or cells: human liver microsomes
- Sequence (P08684 whole entry): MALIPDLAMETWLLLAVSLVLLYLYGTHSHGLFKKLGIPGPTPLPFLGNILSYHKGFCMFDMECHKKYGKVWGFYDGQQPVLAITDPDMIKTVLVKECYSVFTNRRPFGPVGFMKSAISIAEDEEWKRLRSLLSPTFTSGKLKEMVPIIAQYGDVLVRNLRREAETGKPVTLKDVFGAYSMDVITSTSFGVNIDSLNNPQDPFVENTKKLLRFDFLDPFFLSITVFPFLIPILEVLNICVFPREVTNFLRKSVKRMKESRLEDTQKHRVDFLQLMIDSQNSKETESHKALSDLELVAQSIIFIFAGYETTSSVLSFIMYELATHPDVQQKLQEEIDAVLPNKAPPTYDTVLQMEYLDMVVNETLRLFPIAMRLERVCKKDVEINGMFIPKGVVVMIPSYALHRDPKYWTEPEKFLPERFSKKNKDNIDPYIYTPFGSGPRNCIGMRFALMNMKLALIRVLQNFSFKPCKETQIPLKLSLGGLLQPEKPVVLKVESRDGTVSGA
- assay-comment: Inhibition of hepatic drug-metabolizing enzymes in human liver microsomes (substrates midazolam and testosterone)
- Type: in vitro ADME
- stated-conditions: Inhibitory activity on drug-metabolizing enzymes (IC50, µM) CYP3A4-M, substrate midazolam
measurement-kind: IC50

compound: C[C@@H](Nc1nnc(N2CCN(C)CC2)c2cc(=O)n(C3CC3)cc12)c1cccc(C(F)F)c1F [Example 77]
measured-result: 7.81 µM

Problem: Value lookup for IC50; key = Cc1c(C#N)cccc1[C@@H](C)Nc1nnc(C)c2cnc(N3CCOCC3)cc12 [MRTX0902, reference compound]
Solution: 6.9 µM

====

- tgt: SOS1 (Homo sapiens)
Counter-ions that a name gives are not always drawn.
Sorting guide: entries reporting IC50 beneath 6 nM go in the 1 pile, the rest go in the 0 pile.

compound: C[C@@H](Nc1nnc(N2CCN(C(C)(C)C)CC2)c2cc(=O)n(C3(C)CC3)cc12)c1cccc(C(F)F)c1F.O=CO [Example 222, formate]
tgt: SOS1 (Homo sapiens)
assigned-label: 1
--
compound: C[C@@H](Nc1nnc(N(C)C)c2cc(=O)n(C3(C)CC3)cc12)c1cccc(C(F)F)c1F
tgt: SOS1 (Homo sapiens)
assigned-label: 0
--
compound: C[C@@H](Nc1nnc(N2CC3CC3C2)c2cc(=O)n(C3(C)CC3)cc12)c1cccc(C(F)F)c1F (some centres unmarked)
tgt: SOS1 (Homo sapiens)
assigned-label: 0
--
compound: Cc1c(C(F)F)cccc1[C@@H](C)Nc1nnc(N2CCN(C)CC2)c2cc(=O)n(C3(C)CC3)cc12 [Example 213, formate]
tgt: SOS1 (Homo sapiens)
assigned-label: 0

Problem: Item C[C@@H](Nc1nnc(N2CC3COCC3C2)c2cc(=O)n(C3(C)CC3)cc12)c1cccc(C(F)F)c1F (some centres unmarked) : IC50 beneath 6 nM, strictly?
Solution: 1

====

- tgt: UniProt:Q07889
- Sequence (Q07889 1-1333): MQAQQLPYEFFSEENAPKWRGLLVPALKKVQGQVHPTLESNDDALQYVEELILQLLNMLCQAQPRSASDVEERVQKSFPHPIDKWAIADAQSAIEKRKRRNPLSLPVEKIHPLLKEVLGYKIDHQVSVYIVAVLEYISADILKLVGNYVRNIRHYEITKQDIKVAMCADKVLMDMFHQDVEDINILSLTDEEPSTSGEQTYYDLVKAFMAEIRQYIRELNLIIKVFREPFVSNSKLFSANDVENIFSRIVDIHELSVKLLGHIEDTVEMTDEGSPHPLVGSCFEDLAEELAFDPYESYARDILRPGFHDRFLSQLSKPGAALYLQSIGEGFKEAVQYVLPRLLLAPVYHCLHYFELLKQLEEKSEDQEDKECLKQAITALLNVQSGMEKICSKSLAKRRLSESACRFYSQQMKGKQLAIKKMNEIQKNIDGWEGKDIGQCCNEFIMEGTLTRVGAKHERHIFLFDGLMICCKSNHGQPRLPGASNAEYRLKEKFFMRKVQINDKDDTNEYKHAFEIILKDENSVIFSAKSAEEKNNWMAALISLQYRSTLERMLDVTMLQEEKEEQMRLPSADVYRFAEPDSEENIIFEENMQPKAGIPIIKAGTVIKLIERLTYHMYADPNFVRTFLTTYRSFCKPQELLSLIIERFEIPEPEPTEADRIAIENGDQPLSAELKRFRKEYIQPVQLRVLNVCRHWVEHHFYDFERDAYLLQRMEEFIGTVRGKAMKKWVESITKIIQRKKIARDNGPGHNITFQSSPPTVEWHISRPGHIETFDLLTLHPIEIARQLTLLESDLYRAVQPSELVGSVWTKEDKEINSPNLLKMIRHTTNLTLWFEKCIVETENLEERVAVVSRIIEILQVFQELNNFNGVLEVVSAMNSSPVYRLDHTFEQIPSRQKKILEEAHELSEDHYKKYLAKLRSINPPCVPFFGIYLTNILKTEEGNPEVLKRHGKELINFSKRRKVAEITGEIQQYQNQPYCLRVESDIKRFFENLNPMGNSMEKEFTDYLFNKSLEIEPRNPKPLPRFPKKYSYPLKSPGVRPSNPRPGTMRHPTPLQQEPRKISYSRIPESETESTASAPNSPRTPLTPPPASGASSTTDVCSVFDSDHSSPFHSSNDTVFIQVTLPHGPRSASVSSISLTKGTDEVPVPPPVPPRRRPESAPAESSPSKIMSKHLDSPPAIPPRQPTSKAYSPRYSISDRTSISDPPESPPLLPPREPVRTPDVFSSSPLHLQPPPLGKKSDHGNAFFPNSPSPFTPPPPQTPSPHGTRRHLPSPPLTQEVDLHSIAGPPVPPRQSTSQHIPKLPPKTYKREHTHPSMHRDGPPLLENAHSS
Structures can show the parent of a compound that is named as a salt.
Sorting guide: entries reporting IC50 beneath 5 nM go in the 1 pile, the rest go in the 0 pile.

Consider the following illustrative entries.
compound: CCN1CCN(c2nnc(N[C@H](C)c3cccc(C(F)(F)F)c3)c3cn(C4(C)CC4)c(=O)cc23)CC1 [Example 156, formate]
tgt: UniProt:Q07889
assigned-label: 0
--
compound: CCN1CCN(c2nnc(N[C@H](C)c3cccc(C(F)(F)F)c3F)c3cn(C4(C)CC4)c(=O)cc23)CC1 [Example 168, formate]
tgt: UniProt:Q07889
assigned-label: 1
--
compound: C[C@@H](Nc1nnc(N2CCN(C3CCC3)CC2)c2cc(=O)n(C3(C)CC3)cc12)c1cccc(C(F)F)c1F
tgt: UniProt:Q07889
assigned-label: 1

Problem: Item Cc1c([C@@H](C)Nc2nnc(N3CC4CC4C3)c3cc(=O)n(C4(C)CC4)cc23)cccc1C(F)(F)F (some centres unmarked) : IC50 beneath 5 nM, strictly?
Solution: 0
